- tested on: Factor X, P00742
- Sequence (P00742 whole entry, looked up): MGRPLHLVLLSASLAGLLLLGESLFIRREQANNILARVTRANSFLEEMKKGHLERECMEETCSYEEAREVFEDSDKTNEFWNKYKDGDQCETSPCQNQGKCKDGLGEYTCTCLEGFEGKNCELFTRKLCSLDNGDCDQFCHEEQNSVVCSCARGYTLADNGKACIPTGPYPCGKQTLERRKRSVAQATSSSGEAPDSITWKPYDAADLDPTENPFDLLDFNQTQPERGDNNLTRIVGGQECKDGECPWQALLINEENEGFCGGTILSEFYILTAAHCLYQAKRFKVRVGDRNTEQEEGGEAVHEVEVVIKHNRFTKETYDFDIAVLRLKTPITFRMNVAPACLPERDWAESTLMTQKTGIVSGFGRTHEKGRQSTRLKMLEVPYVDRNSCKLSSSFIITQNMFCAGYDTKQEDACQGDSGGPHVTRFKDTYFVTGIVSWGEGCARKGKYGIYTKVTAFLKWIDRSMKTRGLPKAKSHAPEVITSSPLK
quantity kind: KM (µM)
Enter your answer as a number in µM; do not include the unit.

- protein: "FIXa-K228N/R338E/R403E (protein) chain 1: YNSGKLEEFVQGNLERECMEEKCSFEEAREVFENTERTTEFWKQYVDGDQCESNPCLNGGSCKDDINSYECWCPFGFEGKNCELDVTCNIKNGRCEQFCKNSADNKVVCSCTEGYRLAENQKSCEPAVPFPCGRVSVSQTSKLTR chain 2: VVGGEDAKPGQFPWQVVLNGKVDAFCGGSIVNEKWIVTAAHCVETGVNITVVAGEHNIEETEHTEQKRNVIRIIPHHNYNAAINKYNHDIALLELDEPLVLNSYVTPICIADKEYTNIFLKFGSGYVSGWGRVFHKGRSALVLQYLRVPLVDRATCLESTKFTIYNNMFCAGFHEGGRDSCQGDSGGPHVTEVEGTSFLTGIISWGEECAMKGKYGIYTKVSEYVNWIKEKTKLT"
  KM / µM: 0.0592

# context switch: different protein, same KM
QUERY: Which KM value belongs to FIXa-D203N/F205T/E410N (protein) chain 1: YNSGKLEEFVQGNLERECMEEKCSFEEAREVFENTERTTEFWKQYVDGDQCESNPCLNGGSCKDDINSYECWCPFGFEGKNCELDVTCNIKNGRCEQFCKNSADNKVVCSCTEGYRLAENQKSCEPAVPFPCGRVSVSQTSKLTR chain 2: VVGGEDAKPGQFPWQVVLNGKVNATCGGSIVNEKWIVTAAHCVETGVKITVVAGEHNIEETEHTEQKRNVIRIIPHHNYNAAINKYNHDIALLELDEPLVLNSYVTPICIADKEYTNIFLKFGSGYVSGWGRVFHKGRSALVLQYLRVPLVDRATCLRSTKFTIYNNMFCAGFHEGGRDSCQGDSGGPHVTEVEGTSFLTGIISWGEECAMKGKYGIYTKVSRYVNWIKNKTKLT ?
RESULT: 0.0455
